Target System: HLA-DRB1*0301 (Homo sapiens, UniProt P01903+P01911, A100K/A102G/A103R/A169T/F55Y/I96L/K41T/L162R/M171V/P40S/Q125H/Q178H/Q39Y/R42S/S66N/T106N/T262R/W38E/Y61H)
Assay Notes: HLA-DR competitive binding assay on T2.DR3 cells (biotinylated TT829-843 reporter peptide, Europium sandwich immunoassay)
Condition Summary: dose necessary to reduce TT reporter peptide binding to 50%, 10 µM TT829-843 reporter, 180 min
Ends that are not written are not given here.
Measured Metric: IC50 (µM)
A number alone suffices; assume µM.

Query block: Would you kindly share the measured IC50 for HLLCLERDLQRLIGN [TRP-2223-237, HLLCLERDLQRLIGN] ?
Result block: 7.5
